Source: PubChem BioAssay (NCATS)

# System: HB3
# test-details: qHTS profiling for inhibitors of Plasmodium falciparum proliferation (AID 504749); further: nearly all actives have a fitted effect of over 60% in size
# assay-setup: P. falciparum in erythrocytes, SYBR Green DNA, 72 h; series mostly up to 28.7 µM
Results filed as inconclusive are left out. The source made the active and inactive calls. The call rests on the fitted dose curve; in most records, active means well fitted inhibition curve with a large enough effect; inconclusive means small, poorly fitted or top-dose-only effect; inactive means flat fitted curve, though single readings scatter.
Outcome codes: True (active), False (inactive)

Nc1ccccc1C(=O)O
False
CCOC(=O)CC(SP(=S)(OC)OC)C(=O)OCC (stereo not given)
False
C[C@](O)(CS(=O)(=O)c1ccc(F)cc1)C(=O)Nc1ccc(C#N)c(C(F)(F)F)c1
False
O=C1Nc2ccc(Cl)cc2C(c2ccccc2)=NC1O (stereo not given)
False
CC(C)=CC1C(C(=O)OCN2C(=O)C3=C(CCCC3)C2=O)C1(C)C (stereo not given)
False
NCCc1ccc(O)cc1
False
CCOP(=S)(OCC)Oc1ccc2c(C)c(Cl)c(=O)oc2c1
False
C[C@]12CCC(=O)C=C1CC[C@@H]1[C@@H]2CC[C@]2(C)C(=O)CC[C@@H]12
False
Clc1ccc(C(c2ccc(Cl)cc2)C(Cl)(Cl)Cl)cc1
False
CN1C(=O)COc2c(C(=O)NC3CN4CCC3CC4)cc(Cl)cc21 (stereo not given)
False
C=C(C)[C@H]1CN[C@H](C(=O)O)[C@H]1CC(=O)O
False
CN1C(=O)CC(=O)N(c2ccccc2)c2cc(Cl)ccc21
False
O=C(N/N=C/c1ccc([N+](=O)[O-])o1)c1cc([N+](=O)[O-])cc([N+](=O)[O-])c1O
True
CCC(C)(C)c1ccc(O)cc1
False
Clc1cccc(SC2CCNCC2)n1
False
CN1C(=O)CCS(=O)(=O)C1c1ccc(Cl)cc1 (stereo not given)
False
NC(=O)CS(=O)C(c1ccccc1)c1ccccc1 (stereo not given)
False
c1ccc2c(c1)sc1ccccc12
False
C[C@]12CC[C@@H]3c4ccc(OC(=O)N(CCCl)CCCl)cc4CC[C@H]3[C@@H]1CC[C@@H]2O
False
O=P1(N(CCCl)CCCl)NCCCO1 (stereo not given)
False

----------
# test-details: Cell Viability - NIH 3T3 (AID 541);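 further: cells exposed to compound for 40 hours; plate controls were DMSO alone for no effect and tamoxifen positive control for full effect; nearly all actives have a fitted effect of over 25% in size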
# assay-setup: NIH 3T3 cell viability, qHTS; at 92.2 µM (top of the series)
Results filed as inconclusive are left out. The source made the active and inactive calls. Calls come from the whole dose curve; as a rule, active = well fitted cell-killing curve with a large enough effect; inconclusive = small, poorly fitted or top-dose-only effect; inactive = flat fitted curve, though single readings scatter.
Classes used: active, inactive

NCCc1ccc(O)cc1
active
CCC(C)(C)c1ccc(O)cc1
inactive
CC(C)c1cccc(C(C)C)c1O
inactive
COC(=O)C(c1ccccc1)C1CCCCN1 (configuration not stated)
inactive
CC(C)NC(C)C
inactive
COc1cc(OC)c(OC)cc1C=O
inactive
Oc1ccc(Cl)cc1
inactive

----------
# test-details: Primary qHTS to identify inhibitors of SARS-CoV-2 cell entry (AID 1645846); further: nearly all actives have a fitted effect of over 45% in size; further: potency means the concentration at half of the fitted maximal effect
# assay-setup: SARS-CoV-2 pseudovirus cell entry assay, luminescence; series mostly up to 57.1 µM
Inconclusive results are not listed. Activity calls are given as the source filed them. The call rests on the fitted dose curve.
readout-kind: Potency

CCCC(O)C(CC)CO (stereo not given)
inactive
CC1CCc2c(N3CCC(O)CC3)c(F)cc3c(=O)c(C(=O)O)cn1c23 (stereo not given)
inactive
CC(C)(C)NCC(O)c1cc(O)cc(O)c1 (stereo not given)
inactive
O=C(c1ccccc1)c1ccccc1
inactive
O=C(O)CCC(=O)O
inactive
CC(=O)Oc1cc(C(C)C)c(OCCN(C)C)cc1C
inactive
C[C@@H]1CN(c2c(F)c(F)c3c(=O)c(C(=O)O)cn(C4CC4)c3c2F)C[C@H](C)N1
inactive
Cc1ccc(C(=O)c2ccc(CC(=O)O)n2C)cc1
inactive
CC(C)(CO)[C@@H](O)C(=O)NCCCO
inactive
CCOC(=O)C1=C[C@@H](OC(CC)CC)[C@H](NC(C)=O)[C@@H](N)C1
inactive
COP(=S)(OC)SCN1C(=O)c2ccccc2C1=O
inactive
CCn1ccc(NS(=O)(=O)c2ccc(N)cc2)nc1=O
inactive
CCO/C([O-])=N/c1c[n+](N2CCOCC2)no1
inactive
COc1cc(C(=O)NS(=O)(=O)c2ccccc2C)ccc1Cc1cn(C)c2ccc(NC(=O)OC3CCCC3)cc12
inactive
NC(=O)NC(=O)Cc1ccccc1
inactive
Oc1cccc(O)c1
inactive
NC(=O)NC1NC(=O)NC1=O (stereo not given)
inactive
Cc1cc(OI)c(C(C)C)cc1-c1cc(C(C)C)c(OI)cc1C
inactive
CC[N+](C)(CC)CCOC(=O)C1c2ccccc2Oc2ccccc21
inactive
CN1CCN(C(c2ccccc2)c2ccc(Cl)cc2)CC1 (stereo not given)
10 µM (active)

----------
# experimental-target: Nuclear receptor ROR-gamma (Homo sapiens)
# test-details: qHTS assay for small molecule antagonists of the retinoid-related orphan receptor gamma (ROR-gamma) signaling pathway (AID 651802); further: nearly all actives have a fitted effect of over 60% in size
# assay-setup: ROR-gamma antagonist cell reporter assay; series mostly up to 92.2 µM
Inconclusive results are not listed. Active and inactive are the calls of the source. Calls come from the whole dose curve; as a rule, active = well fitted inhibition curve with a large enough effect; inconclusive = small, poorly fitted or top-dose-only effect; inactive = no such curve, though single readings can be large or run the other way.
Classes used: yes (1) for active, no (0) for inactive

NCCc1ccc(O)cc1
no (0)
C[C@]12CCC(=O)C=C1CC[C@@H]1[C@@H]2CC[C@@]2(C)[C@H]1CC[C@]2(C)O
yes (1)
CCCC(C)(COC(N)=O)COC(N)=O
no (0)
Oc1ccc(Cl)cc1
no (0)
CC(C)c1cccc(C(C)C)c1O
no (0)
O=P1(N(CCCl)CCCl)NCCCO1 (configuration not stated)
no (0)
Nc1ccccc1C(=O)O
no (0)

----------
# Tested on: WaGa
# test-details: qHTS assay to identify novel small-molecules to repurpose for Merkel cell carcinoma treatment (AID 1296009); further: nearly all actives have a fitted effect of over 60% in size
# assay-setup: MCC and control cell lines, CellTiter-Glo viability, 72 h; series mostly up to 46 µM
Inconclusive results are not listed. Calls of active or inactive are those of the source. The call rests on the fitted dose curve; in most records, active means well fitted inhibition curve with a large enough effect; inconclusive means small, poorly fitted or top-dose-only effect; inactive means flat fitted curve, though single readings scatter.
Labels: active, inactive

CC(C)c1c(CN(C)C(C)Cc2ccccc2)n(C)n(-c2ccccc2)c1=O (centres undefined)
inactive
CCC1(CC)C(=O)C=CNC1=O
inactive
C[C@]12CC[C@@H]3c4ccc(OC(=O)N(CCCl)CCCl)cc4CC[C@H]3[C@@H]1CC[C@@H]2O
inactive
COc1cc(OC)c(OC)cc1C=O
inactive
CCCN(CCC)C(=O)Cc1c(-c2ccc(Cl)cc2)nc2ccc(Cl)cn12
inactive
O=P1(N(CCCl)CCCl)NCCCO1 (centres undefined)
inactive
CC(C)(C)NCC(O)c1ccccc1Cl (centres undefined)
inactive
CC(=O)C1CCOC1=O (centres undefined)
inactive
CCN(CCO)CCn1c(Cc2ccccc2)nc2c1c(=O)n(C)c(=O)n2C
inactive
CC(=O)NC1CCSC1=O (centres undefined)
inactive
CC[N+]1(CC)CCC(OC(=O)C(O)(c2ccccc2)c2ccccc2)C1 (centres undefined)
inactive
CCC1(c2ccccc2)C(=O)N(COC)C(=O)N(COC)C1=O
inactive
CN1CC[C@]23c4c5ccc(O)c4O[C@H]2[C@@H](O)CC[C@H]3[C@H]1C5
inactive
COc1cc(CCN)cc(OC)c1OC
inactive
Clc1cccc(SC2CCNCC2)n1
inactive
C=CCC1([C@H](C)CCC)C(=O)NC(=O)NC1=O
inactive
C[C@@H]1CC2=CC(=O)CC[C@@H]2[C@H]2CC[C@@]3(C)[C@@H](CC[C@]3(C)O)[C@@H]21
inactive
O=C1OC(c2ccc(O)c(S(=O)(=O)O)c2)(c2ccc(O)c(S(=O)(=O)O)c2)c2c(Br)c(Br)c(Br)c(Br)c21
inactive
CN1CCC(O)(c2ccc(F)cc2)C(C(=O)c2ccc(F)cc2)C1 (centres undefined)
inactive
Cc1ncsc1CCCl
inactive
C=CCN1C[C@H](C)N([C@H](c2ccc(C(=O)N(CC)CC)cc2)c2cccc(OC)c2)C[C@H]1C
inactive
COC1CC(=C(c2cccs2)c2cccs2)C[N+](C)(C)C1 (centres undefined)
active
C=CCC1(C(C)CC)C(=O)NC(=O)NC1=O (centres undefined)
inactive
O=C(O)c1ccc(=O)[nH]c1
inactive

----------
# System: KB-3-1
# test-details: Cytotoxic Profiling of Annotated Libraries Using Quantitative High-Throughput Screening (AID 1296008); further: on the % scale 0 is the no-effect control and ±100 the full control effect; nearly all actives have a fitted effect of over 60% in size
# assay-setup: Five cell lines viability, CellTiter-Glo ATP luminescence, 48-72 h; hits give low values
Results filed as inconclusive are left out.
readout-kind: max response (%)

Cc1nnc2n1-c1ccc(Cl)cc1C(c1ccccc1)=NC2
-2.21
NC1=NC(=O)C(c2ccccc2)O1 (centres undefined)
4.09
Nc1nc(N)nc(NC2CC2)n1
8.79
NC(=O)c1cc([N+](=O)[O-])cc([N+](=O)[O-])c1
-1.64
C[C@]12CC[C@@H]3c4ccc(OC(=O)N(CCCl)CCCl)cc4CC[C@H]3[C@@H]1CC[C@@H]2OP(=O)(O)O
-0.529
[N-]=[N+]=CC(=O)OC[C@H](N)C(=O)O
-24.6
CN[C@@H](C)Cc1ccccc1
-3.3
Nc1ccc([As](=O)(O)O)cc1
-4.72
C=CCC1([C@H](C)CCC)C(=O)NC(=O)NC1=O
-1.57
O=C1OC(c2ccc(O)c(S(=O)(=O)O)c2)(c2ccc(O)c(S(=O)(=O)O)c2)c2c(Br)c(Br)c(Br)c(Br)c21
10.3
Nc1ccccc1C(=O)O
-19.2
CC1(C)C(C=C(Cl)Cl)C1C(=O)OC(C#N)c1cccc(Oc2ccccc2)c1 (centres undefined)
2.32
COP(=S)(OC)SCN1C(=O)c2ccccc2C1=O
6.87
COC(=O)C(Cl)C(=O)OC
-12.1
